Biological target: recombinant human SAE enzyme (Homo sapiens (Human), UniProt Q9UBT2)
Sequence (Q9UBT2 whole entry): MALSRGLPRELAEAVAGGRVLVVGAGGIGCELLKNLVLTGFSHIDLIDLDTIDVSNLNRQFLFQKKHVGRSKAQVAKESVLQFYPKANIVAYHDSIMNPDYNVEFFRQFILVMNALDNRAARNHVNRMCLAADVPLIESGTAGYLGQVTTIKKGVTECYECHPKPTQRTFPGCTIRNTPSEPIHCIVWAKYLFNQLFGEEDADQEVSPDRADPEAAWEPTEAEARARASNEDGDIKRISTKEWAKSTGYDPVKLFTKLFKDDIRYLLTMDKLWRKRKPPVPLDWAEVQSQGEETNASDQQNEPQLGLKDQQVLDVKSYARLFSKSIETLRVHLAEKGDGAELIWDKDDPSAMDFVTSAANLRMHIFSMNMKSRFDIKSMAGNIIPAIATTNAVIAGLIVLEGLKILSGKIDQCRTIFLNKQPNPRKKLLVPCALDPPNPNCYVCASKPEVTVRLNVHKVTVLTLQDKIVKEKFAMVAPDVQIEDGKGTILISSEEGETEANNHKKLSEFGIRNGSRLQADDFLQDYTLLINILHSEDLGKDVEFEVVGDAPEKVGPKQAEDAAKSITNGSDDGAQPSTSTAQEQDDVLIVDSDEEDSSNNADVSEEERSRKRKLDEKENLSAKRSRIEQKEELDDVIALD
Sequence (Q9UBE0 whole entry partner): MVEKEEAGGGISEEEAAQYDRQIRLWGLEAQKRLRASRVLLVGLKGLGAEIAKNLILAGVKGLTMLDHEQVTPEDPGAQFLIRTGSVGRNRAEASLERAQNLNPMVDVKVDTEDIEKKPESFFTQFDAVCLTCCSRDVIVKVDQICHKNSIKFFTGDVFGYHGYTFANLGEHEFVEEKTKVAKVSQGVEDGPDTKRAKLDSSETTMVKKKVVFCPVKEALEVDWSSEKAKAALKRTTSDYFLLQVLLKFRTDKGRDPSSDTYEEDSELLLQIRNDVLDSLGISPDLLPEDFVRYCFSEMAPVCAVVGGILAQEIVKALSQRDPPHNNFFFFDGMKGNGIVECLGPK
Experiment: SAE HTRF enzyme assay
Type: biochemical
Conditions: Concentration 0.111 μM; read-out: Percent Inhibition
Attribute measured: inhibition at 0.111 µM (%)
Return type: number; implicit unit %.

Answered cases to consult:
Cc1ccccc1OCc1csc(C(=O)c2cncnc2N[C@@H]2C[C@H](COS(N)(=O)=O)[C@@H](O)C2)c1 96
NS(=O)(=O)OC[C@H]1C[C@@H](Nc2ncncc2C(=O)c2cc(Cc3ccc(Cl)c(Cl)c3)cs2)C[C@@H]1O 97

*Q* # get_value(readout='inhibition at 0.111 µM', item= `NS(=O)(=O)OC[C@H]1C[C@@H](Nc2ncncc2C(=O)c2cc(Cn3ccnc3)cs2)C[C@@H]1O` )
*A* 28

*Q* # get_value(readout='inhibition at 0.111 µM', item= `Cc1sc(C(=O)c2cncnc2N[C@@H]2C[C@H](COS(N)(=O)=O)[C@@H](O)C2)cc1Cn1cc(I)cn1` )
*A* 98

*Q* # get_value(readout='inhibition at 0.111 µM', item= `N#Cc1cccc(Cc2csc(C(=O)c3cncnc3N[C@@H]3C[C@H](COS(N)(=O)=O)[C@@H](O)C3)c2)c1` )
*A* 80

*Q* # get_value(readout='inhibition at 0.111 µM', item= `CC(=O)c1coc(C(=O)c2cncnc2N[C@@H]2C[C@H](COS(N)(=O)=O)[C@@H](O)C2)c1` )
*A* 20

*Q* # get_value(readout='inhibition at 0.111 µM', item= `COCc1csc(C(=O)c2cncnc2N[C@@H]2C[C@H](COS(N)(=O)=O)[C@@H](O)C2)c1` )
*A* 36

----------
Biological target: recombinant human SAE enzyme (Homo sapiens (Human))
Assay: SAE HTRF enzyme assay
Type: biochemical
Conditions: SAE inhibition at compound concentration 0.111 μM
Entries and their Percent Inhibition
Return type: number; implicit unit %.

Answered cases to consult:
Compound	Percent Inhibition, %
Cc1sc(C(=O)c2cncnc2N[C@@H]2C[C@H](COS(N)(=O)=O)[C@@H](O)C2)cc1[C@@H]1OCCc2cccnc21 (single isomer, unassigned) [I-285b]	44
NS(=O)(=O)OC[C@H]1C[C@@H](Nc2ncncc2C(=O)c2cc([C@@H]3NCCc4ccccc43)cs2)C[C@@H]1O (single isomer, unassigned) [I-283b]	93
NS(=O)(=O)OC[C@H]1C[C@@H](Nc2ncncc2C(=O)c2cc([C@@H]3OCCc4ccc(Cl)cc43)c(C(F)F)s2)C[C@@H]1O	95

*Q* # get_value(readout='Percent Inhibition', item= NS(=O)(=O)OC[C@H]1C[C@@H](Nc2ncncc2C(=O)c2cc([C@H]3OCCc4c(Cl)cccc43)cs2)C[C@@H]1O (mixture of isomers) )
*A* 99

*Q* # get_value(readout='Percent Inhibition', item= Cc1cc2n(n1)CCO[C@H]2c1csc(C(=O)c2cncnc2N[C@@H]2C[C@H](COS(N)(=O)=O)[C@@H](O)C2)c1 (mixture of isomers) )
*A* 25

*Q* # get_value(readout='Percent Inhibition', item= Cc1sc(C(=O)c2cncnc2N[C@@H]2C[C@H](COS(N)(=O)=O)[C@@H](O)C2)cc1[C@@H]1OCOc2ccccc21 (single isomer, unassigned) [I-280b] )
*A* 100

*Q* # get_value(readout='Percent Inhibition', item= Cc1sc(C(=O)c2cncnc2N[C@@H]2C[C@H](COS(N)(=O)=O)[C@@H](O)C2)cc1[C@@H]1OCCn2c1nc1ccccc12 (mixture of isomers) )
*A* 99

*Q* # get_value(readout='Percent Inhibition', item= CC(C)(C)OC(=O)N1CCc2ccc(Cl)cc2[C@@H]1c1cc(C(=O)c2cncnc2N[C@@H]2C[C@H](COS(N)(=O)=O)[C@@H](O)C2)sc1Cl.CC(C)(C)OC(=O)N1CCc2ccc(Cl)cc2[C@H]1c1cc(C(=O)c2cncnc2N[C@@H]2C[C@H](COS(N)(=O)=O)[C@@H](O)C2)sc1Cl (mixture of isomers) )
*A* 15

*Q* # get_value(readout='Percent Inhibition', item= NS(=O)(=O)OC[C@H]1C[C@@H](Nc2ncncc2C(=O)c2cc([C@@H]3OCCc4ccc(Cl)cc43)c(Cl)s2)C[C@@H]1O (single isomer, unassigned) [I-282b] )
*A* 102

*Q* # get_value(readout='Percent Inhibition', item= COc1ccc2c(n1)[C@H](c1cc(C(=O)c3cncnc3N[C@@H]3C[C@H](COS(N)(=O)=O)[C@@H](O)C3)sc1C)OCC2 (single isomer, unassigned) [I-339b] )
*A* 94

----------
Molecular target: recombinant human SAE enzyme (Homo sapiens (Human))
Assay: SAE HTRF enzyme assay
Format: biochemical
Settings: Concentration 0.111 μM; read-out: Percent Inhibition
Attribute measured: inhibition at 0.111 µM (%)
Return type: number; implicit unit %.

Answered cases to consult:
NS(=O)(=O)OC[C@H]1C[C@@H](Nc2ncncc2C(=O)c2cc(CC3=CCOCC3)cs2)C[C@@H]1O 63
NS(=O)(=O)OC[C@H]1C[C@@H](Nc2nc(Cl)ncc2C(=O)c2ccc(-c3ccccc3)o2)[C@H](O)[C@@H]1O 19
CC(C)Oc1ccccc1OCc1csc(C(=O)c2cncnc2N[C@@H]2C[C@H](COS(N)(=O)=O)[C@@H](O)C2)c1 60
CN(C)Cc1sc(C(=O)c2cncnc2N[C@@H]2C[C@H](COS(N)(=O)=O)[C@@H](O)C2)cc1Cc1cccc(Cl)c1 98

*Q* # get_value(readout='inhibition at 0.111 µM', item= `NS(=O)(=O)OC[C@H]1C[C@@H](Nc2ncncc2C(=O)c2cc(CCc3ccc(Cl)cc3)cs2)C[C@@H]1O` )
*A* 87

*Q* # get_value(readout='inhibition at 0.111 µM', item= `NS(=O)(=O)OC[C@H]1C[C@@H](Nc2ncncc2C(=O)c2cc(CN3CCCC(F)(F)C3)cs2)C[C@@H]1O` )
*A* 31

*Q* # get_value(readout='inhibition at 0.111 µM', item= `NS(=O)(=O)OC[C@H]1C[C@@H](Nc2ncncc2C(=O)c2cc(CO)c(Cc3cccc(Cl)c3)s2)C[C@@H]1O` )
*A* 94

*Q* # get_value(readout='inhibition at 0.111 µM', item= `NS(=O)(=O)OC[C@H]1C[C@@H](Nc2ncncc2C(=O)c2ccc(-c3ccccc3)o2)[C@H](O)[C@@H]1O` )
*A* 94

*Q* # get_value(readout='inhibition at 0.111 µM', item= `Cc1sc(C(=O)c2cncnc2N[C@@H]2C[C@H](COS(N)(=O)=O)[C@@H](O)C2)cc1Sc1ccccc1` )
*A* 95

----------
Molecular target: recombinant human SAE enzyme (Homo sapiens (Human))
Experiment: SAE HTRF enzyme assay
Format: biochemical
Conditions: class symbols A/B/C
Attribute measured: IC50

Answered cases to consult:
Compound	Reported measurement
NS(=O)(=O)OC[C@H]1C[C@@H](Nc2ncncc2C(=O)c2cc([C@H]3NCCc4ccccc43)c(Cl)s2)C[C@@H]1O (single isomer, unassigned) [I-279a]	< 10 nM
Cc1oc(C(=O)c2cncnc2N[C@@H]2C[C@H](COS(N)(=O)=O)[C@@H](O)[C@@H]2F)cc1Cc1cccc(Cl)c1 [I-75]	< 10 nM
Cc1oc(C(=O)c2cncnc2N[C@@H]2C[C@H](COS(N)(=O)=O)[C@@H](O)[C@@H]2F)cc1Cc1cccc(Br)c1 [I-64]	< 10 nM

Continue with the next compound.
*Q* # get_value(readout='IC50', item= NS(=O)(=O)OC[C@H]1C[C@@H](Nc2ncncc2C(=O)c2cc(CCc3ccc(Cl)cc3)cs2)C[C@@H]1O [I-178] )
*A* 10 to 100 nM

----------
Entries and their inhibition at 0.111 µM
Molecular target: recombinant human SAE enzyme (Homo sapiens (Human))
Test: SAE HTRF enzyme assay
Assay type: biochemical
Details: Concentration 0.111 μM; read-out: Percent Inhibition
Return type: number; implicit unit %.

Answered cases to consult:
CN(C)Cc1cn(Cc2csc(C(=O)c3cncnc3N[C@@H]3C[C@H](COS(N)(=O)=O)[C@@H](O)C3)c2)c2ccccc12 30
NS(=O)(=O)OC[C@H]1C[C@@H](Nc2ncncc2C(=O)c2cc(Cc3cccc(OC(F)F)c3)cs2)C[C@@H]1O 97
NS(=O)(=O)OC[C@H]1C[C@@H](Nc2ncncc2C(=O)c2ccc(Cc3cccc(Cl)c3)o2)C[C@@H]1O 98

Continue with the next compound.
*Q* # get_value(readout='inhibition at 0.111 µM', item= `NS(=O)(=O)OC[C@H]1C[C@@H](Nc2ncncc2C(=O)c2cc(Cc3ccc(Cl)o3)cs2)C[C@@H]1O` )
*A* 98

Provenance of the data: patent US10780090B2
